Tested on: morningglory
Assay: postemergence herbicidal activity on morningglory
Format: in vivo, Ipomea lacunosa or Ipomea hederacea
Details: Ipomoea, post-emergence, 0.3 Kg/Ha, after 12-17 days, read-out: POSTEMERGENCE HERBICIDAL ACTIVITY (% CONTROL) IPOSS
Readings of activity at 300 g/ha for the listed molecules
A bare number is not enough; add the unit after it.

A selection of reference data follows.
Cn1nc(-c2cc(CC(Cl)C(C)(C)O)c(Cl)cc2F)c(Cl)c1OC(F)F (centres unmarked): 100%
CNC(=O)OCC(Cl)Cc1cc(-n2nc(C)n(C(F)F)c2=O)c(F)cc1Cl (centres unmarked): 100%
Cn1c(C(F)(F)F)cc(=O)n(-c2cc(CC(Cl)C(C)(C)O)c(Cl)cc2F)c1=O (centres unmarked): 100%
CC(=O)OC(C)(C)C(Cl)Cc1cc(-c2nn(C)c(OC(F)F)c2Cl)c(F)cc1Cl (centres unmarked): 100%
CC(=O)OC(C)(C)C(Cl)Cc1cc(-n2nc(C)n(C(F)F)c2=O)c(F)cc1Cl (centres unmarked): 100%
Cc1nn(-c2cc(CC(Cl)COC(=O)NC(C)C)c(Cl)cc2F)c(=O)n1C(F)F (centres unmarked): 90%

Look up and state reported activity at 300 g/ha for CC(=O)OC(C)(C)C(Cl)Cc1cc(-n2c(=O)cc(C(F)(F)F)n(C)c2=O)c(F)cc1Cl (centres unmarked)
90%

Look up and state reported activity at 300 g/ha for Cc1nn(-c2cc(CC(Cl)C(C)(C)O)c(Cl)cc2F)c(=O)n1C(F)F (centres unmarked)
100%
